Biological target: Zap1 (UniProt P47043)
Sequence: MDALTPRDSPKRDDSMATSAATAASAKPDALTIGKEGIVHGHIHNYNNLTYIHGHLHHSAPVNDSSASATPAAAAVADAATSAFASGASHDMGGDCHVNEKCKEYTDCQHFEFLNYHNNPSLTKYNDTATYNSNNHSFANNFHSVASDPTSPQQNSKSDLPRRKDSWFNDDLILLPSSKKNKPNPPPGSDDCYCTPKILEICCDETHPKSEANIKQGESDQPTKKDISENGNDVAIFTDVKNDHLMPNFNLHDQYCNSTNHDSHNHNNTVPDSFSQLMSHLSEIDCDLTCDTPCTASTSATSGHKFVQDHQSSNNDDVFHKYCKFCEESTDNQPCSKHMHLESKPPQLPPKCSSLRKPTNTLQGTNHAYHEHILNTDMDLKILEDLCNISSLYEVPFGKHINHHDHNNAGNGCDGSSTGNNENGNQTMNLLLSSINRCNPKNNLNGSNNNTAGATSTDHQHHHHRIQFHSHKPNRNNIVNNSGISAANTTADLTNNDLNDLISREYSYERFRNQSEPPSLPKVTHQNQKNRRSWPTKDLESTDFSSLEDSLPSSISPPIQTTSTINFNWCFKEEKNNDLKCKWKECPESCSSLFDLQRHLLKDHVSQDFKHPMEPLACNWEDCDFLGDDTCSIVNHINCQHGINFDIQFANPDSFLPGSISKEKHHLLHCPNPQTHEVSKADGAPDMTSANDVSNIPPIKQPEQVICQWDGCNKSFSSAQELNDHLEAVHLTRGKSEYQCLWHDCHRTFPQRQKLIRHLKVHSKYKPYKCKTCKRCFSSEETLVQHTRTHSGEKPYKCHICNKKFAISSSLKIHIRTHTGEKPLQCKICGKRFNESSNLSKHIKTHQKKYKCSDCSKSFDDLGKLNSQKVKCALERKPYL
Assay: PBM E-score (8-mer binding enrichment) (E-score (-0.5 to 0.5)); higher = stronger / more preferred TF binding
Details: protein concentration: 200 nM; construct: GST-full length
Whole data set: some 33,000 sequences, median “E-score (-0.5 to 0.5)” near -0.021, cut for the highest 2% near 0.32. Only a selection was taken, and the highest values are over-represented in it overall.
quantityMeasured: PBM E-score

>>> observedresult("AACCTCGC")
0.295
>>> observedresult("AACCTCGG")
0.302
>>> observedresult("AATAACAT")
0.0801

###

Target: Zap1 (UniProt P47043)
Sequence: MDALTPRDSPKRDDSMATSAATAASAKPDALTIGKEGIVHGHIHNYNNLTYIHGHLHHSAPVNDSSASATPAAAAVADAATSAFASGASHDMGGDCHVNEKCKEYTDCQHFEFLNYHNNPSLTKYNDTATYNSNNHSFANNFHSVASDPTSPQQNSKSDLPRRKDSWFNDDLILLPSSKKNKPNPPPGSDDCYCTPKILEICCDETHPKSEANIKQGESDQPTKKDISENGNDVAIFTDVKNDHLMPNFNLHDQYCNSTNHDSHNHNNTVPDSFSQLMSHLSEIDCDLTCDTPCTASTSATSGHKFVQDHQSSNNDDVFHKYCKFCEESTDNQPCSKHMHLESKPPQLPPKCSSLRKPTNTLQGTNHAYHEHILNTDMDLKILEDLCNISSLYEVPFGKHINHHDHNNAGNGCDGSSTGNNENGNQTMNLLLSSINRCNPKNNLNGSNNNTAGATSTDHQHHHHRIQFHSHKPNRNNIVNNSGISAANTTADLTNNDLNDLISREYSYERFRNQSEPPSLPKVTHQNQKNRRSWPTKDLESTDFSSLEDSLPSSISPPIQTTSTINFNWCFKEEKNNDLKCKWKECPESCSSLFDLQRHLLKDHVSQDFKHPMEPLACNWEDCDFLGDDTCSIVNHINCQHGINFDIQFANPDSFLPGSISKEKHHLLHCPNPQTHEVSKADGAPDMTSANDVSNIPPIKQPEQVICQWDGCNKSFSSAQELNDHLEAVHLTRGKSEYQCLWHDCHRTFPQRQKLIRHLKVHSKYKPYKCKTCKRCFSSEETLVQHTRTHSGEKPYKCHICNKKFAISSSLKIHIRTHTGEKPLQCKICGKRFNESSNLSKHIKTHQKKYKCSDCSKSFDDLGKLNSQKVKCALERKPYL
Assay: PBM E-score (8-mer binding enrichment) (E-score (-0.5 to 0.5)); higher = stronger / more preferred TF binding
Conditions: protein concentration: 200 nM; construct: GST-full length
The full ranking holds about 33,000 sequences; the median of “E-score (-0.5 to 0.5)” is about -0.021, and the highest 2% start at about 0.32. Only a selection was taken, and the highest values are over-represented in it overall.
// map PBM E-score to label using lo: < 0.2; med: ≥ 0.2 and < 0.3; hi: ≥ 0.3

>>> classname("AAACCCTG")
"hi"
>>> classname("GGTTACTA")
"hi"
>>> classname("AAACCTTA")
"med"
>>> classname("AAGGGTCC")
"med"
>>> classname("AACCCATT")
"med"
>>> classname("GGTTAACC")
"hi"
>>> classname("ACCCCATA")
"hi"
>>> classname("ACCCCATG")
"med"
>>> classname("CAACCTTA")
"med"
>>> classname("AACCCATA")
"hi"
>>> classname("ATGGGTAC")
"hi"
>>> classname("AGTTACTA")
"lo"
>>> classname("AGTTAACA")
"lo"
>>> classname("GAACCTCA")
"lo"
>>> classname("CTAGTCTA")
"lo"
>>> classname("AGTTACGA")
"med"
>>> classname("GCAGCCCC")
"lo"
>>> classname("ACCCCCTG")
"lo"
>>> classname("GCTTGACC")
"med"
>>> classname("TAAGTTCA")
"lo"
>>> classname("CAGGGTAC")
"hi"
